- experimental_target: T1, SAS1B extracellular domain (aa 164-431) polypeptide (Homo sapiens, UniProt Q6HA08)
- T1 construct: SAS1B extracellular domain (aa 164-431) polypeptide; made in house
- T1 sequence (Q6HA08 164-431): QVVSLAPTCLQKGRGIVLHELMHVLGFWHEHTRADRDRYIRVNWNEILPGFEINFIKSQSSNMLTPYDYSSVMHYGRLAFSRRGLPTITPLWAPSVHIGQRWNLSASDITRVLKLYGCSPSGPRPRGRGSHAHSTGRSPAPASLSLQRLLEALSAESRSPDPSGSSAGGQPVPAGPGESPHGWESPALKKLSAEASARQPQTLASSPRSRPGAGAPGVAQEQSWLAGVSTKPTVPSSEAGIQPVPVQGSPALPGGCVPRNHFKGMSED
- experiment: Western blot with mammalian cell-expressed recombinant SAS1B, extracellular domain
- Assay type: binding
readout_type: Reaction with SAS1B extracellular domain (aa 164-431) polypeptide

molecule	assay_result
SB2: mouse anti-human SAS1B monoclonal antibody, IgG2b; VH SEQ ID NO:14, VL SEQ ID NO:15 (antibody, listed as Mus musculus, V domains shown) VH: EVQLQQSGPELVKPGSSVKISCKASGYTFTDYNMVWVKQSHGKSLEWIGAVNPNNGGTSYNQKFKGKATLTVDKSSSTAYMELRSLTSEDSAVYYCVPNWDWFAYWGQGTLVTVSA VL: DVLMTQTPLSLPVSLGDQASISCRSSQSLVHSNGNTYLEWYLQKPGQSPNLLIYKVSNRFSGVPDRFSGSGSGTDFTLKISRVEAEDLGVYYCFQGSHVPFTFGSGTKLEIK	none of the them reacted
SB5: mouse anti-human SAS1B monoclonal antibody, IgG2b; VH SEQ ID NO:16, VL SEQ ID NO:18 (antibody, listed as Mus musculus, V domains shown) VH: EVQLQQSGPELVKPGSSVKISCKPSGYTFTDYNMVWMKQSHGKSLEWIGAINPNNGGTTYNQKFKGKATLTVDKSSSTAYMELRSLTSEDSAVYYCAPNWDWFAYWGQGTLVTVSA VL: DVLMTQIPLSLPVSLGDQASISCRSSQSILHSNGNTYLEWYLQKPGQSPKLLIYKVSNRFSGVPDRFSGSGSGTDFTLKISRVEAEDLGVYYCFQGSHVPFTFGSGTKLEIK	none of the them reacted
